// data source = patent US20190367592A1

Molecular target: T1, recombinant human Tau monomer, 2N4R isoform (amino acids 2-441) (human, UniProt P10636-8 2-441)
T1 construct: range 2-441; N-terminal His-tag removed with TEV protease; also called monomeric Tau
T1 sequence (P10636 other isoform, or with tags, fused parts or gaps limits assumed): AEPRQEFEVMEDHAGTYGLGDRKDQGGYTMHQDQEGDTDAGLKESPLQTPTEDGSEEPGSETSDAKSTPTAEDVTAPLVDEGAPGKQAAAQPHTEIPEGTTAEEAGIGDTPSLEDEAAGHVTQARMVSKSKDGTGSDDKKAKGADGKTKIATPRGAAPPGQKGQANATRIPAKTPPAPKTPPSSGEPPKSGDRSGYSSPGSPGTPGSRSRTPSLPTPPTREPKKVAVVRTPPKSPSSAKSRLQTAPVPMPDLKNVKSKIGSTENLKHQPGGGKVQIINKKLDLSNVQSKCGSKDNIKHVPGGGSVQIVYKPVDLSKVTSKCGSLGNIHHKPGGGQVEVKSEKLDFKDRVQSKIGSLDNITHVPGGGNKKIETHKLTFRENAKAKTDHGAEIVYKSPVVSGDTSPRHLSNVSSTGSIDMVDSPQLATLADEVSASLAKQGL
Test: SPR; Normalized Rmax post-stress (2 weeks 40 C) / pre-stress
Experimental: Briefly, IgGs in 1 mL culuture were captured using tip columns that were custom packed with 20 μL MabSelect SuRe resin (Glygen Corp & GE Healthcare). […] The antibodies were assessed using a human antibody capture CM5 Series S chip generated using the GE Biacore human IgG capture kit and a Biacore T200 instrument. […] Binding to Tau monomer at 0 nM, 26.5 nM and 265 nM, at 25° C., using a flow rate of 40 μl/min, was monitored for a 180 second association phase followed by a 300 second dissociation phase. […]
// reported Stability Index per item
Quick reminder: number only, in %, skip the unit.

Use the examples below as a reference point.
• hu37D3-H9.v31.9 (antibody, V domains shown) VH: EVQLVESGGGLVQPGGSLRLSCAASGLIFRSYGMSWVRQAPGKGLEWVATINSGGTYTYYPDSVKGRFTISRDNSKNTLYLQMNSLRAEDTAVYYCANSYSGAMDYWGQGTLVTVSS VL: DDVLTQTPLSLPVTPGQPASISCRSSQSIVHSNANIYFEWYLQKPGQSPQLLIYKVSNRFSGVPDRFSGSGSGTDFTLKISRVEAEDVGVYYCFQGSLVPWTFGQGTKVEIK = 81
• hu37D3.v28.52 (antibody, V domains shown) VH: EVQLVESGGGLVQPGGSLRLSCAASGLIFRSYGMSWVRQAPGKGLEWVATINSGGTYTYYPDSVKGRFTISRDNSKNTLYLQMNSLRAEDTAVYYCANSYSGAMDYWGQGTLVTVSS VL: EDVLTQTPLSLPVTPGQPASISCRSSQSIVHSKGNTYFEWYLQKPGQSPQLLIYKVSNRFSGVPDRFSGSGSGTDFTLKISRVEAEDVGVYYCFQGSLVPWTFGQGTKVEIK = 80

Given the entry hu37D3-H9.v30.5 (antibody, V domains shown) VH: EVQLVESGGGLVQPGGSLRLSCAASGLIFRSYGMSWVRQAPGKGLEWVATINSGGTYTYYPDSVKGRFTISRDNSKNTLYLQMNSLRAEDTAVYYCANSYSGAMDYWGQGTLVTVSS VL: DDVLTQTPLSLPVTPGQPASISCRSSQSIVHSIGNTYFEWYLQKPGQSPQLLIYKVSNRFSGVPDRFSGSGSGTDFTLKISRVEAEDVGVYYCFQGSLVPWTFGQGTKVEIK , report its measured Stability Index.
80
